targetOrTestSystem: SlyD^WT IF (chaperone) domain (Thermus thermophilus, UniProt Q5SLE7)
assaySummary: biochemical
Assay type: binding
Ends that are not written are not given here.
For each record, write down the corresponding Kd.
Report field: quantity (unit follows the number).

Example substances with recorded Kd:
substance="TRYANAKMLPFAFGA [W4A]" testvalue="750 nM"
substance="TRYWNAKALPFAFGA [M8A]" testvalue="240 nM"
substance="H-TRYWNAKMLPFAFGL-OH [A15L]" testvalue="160 nM"

We next turn to a different substance, shown below.
What value of Kd has been recorded for this entry: TRAWNAKMLPFAFGA [Y3A]
720 nM

* * *

targetOrTestSystem: SlyD^WT IF (chaperone) domain (Thermus thermophilus)
Sequence (Q5SLE7 70-117): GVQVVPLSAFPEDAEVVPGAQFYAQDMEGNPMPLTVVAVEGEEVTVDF
assaySummary: biochemical
Format: binding
Procedure: ITC was measured using MicroCal VP-ITC calorimeter (Malvern) and analysed with MicroCal ITC-ORIGIN Analysis Software. First 1 × 3 µl and then 42 × 6.5 µl of 1.2 mM peptides dissolved in 20 mM HEPES (pH 7.5) and 100 mM NaCl were injected every 240 s from the syringe into the cell containing 50 µM SlyD at 25 °C. The resulting isotherms were fitted with one binding site model in case of SlyDΔIF construct and with two binding site model in case of the wild-type SlyD.
Ends that are not written are not given here.
For each record, write down the corresponding pKd.
Answers are plain numbers, as −log10 of the molar value.

Example substances with recorded pKd:
substance="H-TRYWNAKMLPFAFMA-OH [G14M]" testvalue=7.00
substance="H-TRYENAKMLPFAFGA-OH [W4E]" testvalue=6.07
substance="H-TRYKNAKMLPFAFGA-OH [W4K]" testvalue=6.68

Respectfully, I request pKd for each entry included below.
1. H-TRYWNAKMLPFAEGA-OH [F13E]
2. TRYWNAKMLPFAFGA [psWT]
3. TRYWNAKMLPFAAGA [F13A]
4. H-TRYWNAKMLPFAKGA-OH [F13K]

5.94
6.66
6.42
6.96
